Hey, just so you know, these numbers are from patent US9518052B2.

- Tested on: rhIFNγ stimulated STAT-3 phosphorylation in the A549 human epithelial cell line
- test-name: A549 Cell Assay: Inhibition of pSTAT3
- Type: cell-based
- measurement-parameters: Homo sapiens, A549 cells
metric: IC50 (nM)

## Input GET /values?readout=IC50&item= CCN(c1ccc(O)cc1CNc1nc(-c2cc(F)c(O)cc2CC(F)(F)F)nc2[nH]nc(C(=O)NC)c12)S(=O)(=O)c1ccccc1 [Example 105]
## Output 7020

P: CCc1cc(O)cc(C)c1-c1cc2[nH]ncc2c(NCc2ccccc2N(C)S(C)(=O)=O)n1 [Example 156]
Q: CN(c1cc(O)ccc1CNc1nc(-c2cc(F)c(O)cc2CC(F)(F)F)cc2[nH]nc(C(N)=O)c12)S(C)(=O)=O [Example 41]
R: CNC(=O)c1n[nH]c2nc(-c3cc(F)c(O)cc3CC(F)(F)F)nc(NCc3ccccc3N(C)S(C)(=O)=O)c12 [Example 94]
## Input In this exercise, place the 3 compounds in ascending sequence of their recorded IC50. Output spec: labels arranged per the requested ranking.
## Output P, R, Q
(P: 72.4 nM, R: 126 nM, Q: 1180 nM)
